test target: EP4 subtype of the human PGE2 receptor (Homo sapiens, UniProt P35408)
Sequence (P35408 whole entry): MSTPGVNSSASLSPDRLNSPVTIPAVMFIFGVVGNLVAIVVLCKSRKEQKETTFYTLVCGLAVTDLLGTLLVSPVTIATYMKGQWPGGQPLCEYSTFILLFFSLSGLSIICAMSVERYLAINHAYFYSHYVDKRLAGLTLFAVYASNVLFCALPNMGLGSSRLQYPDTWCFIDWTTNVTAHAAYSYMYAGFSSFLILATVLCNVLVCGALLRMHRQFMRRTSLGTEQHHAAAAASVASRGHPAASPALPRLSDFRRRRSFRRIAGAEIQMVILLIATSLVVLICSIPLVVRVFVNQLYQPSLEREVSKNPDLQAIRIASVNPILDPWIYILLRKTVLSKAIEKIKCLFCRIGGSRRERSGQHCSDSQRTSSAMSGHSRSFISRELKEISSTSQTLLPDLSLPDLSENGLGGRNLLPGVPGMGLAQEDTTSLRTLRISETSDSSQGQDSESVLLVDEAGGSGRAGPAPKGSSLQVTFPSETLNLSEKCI
assay protocol: cAMP antagonism test on the human EP4 receptor (HTRF cAMP detection)
Assay type: cell-based
assay setup: selectivity towards hEP4, IC50 measured by cAMP antagonism test
endpoint name: Selectivity hEP2/hEP4

smiles_string=COC1CN(CCNC(=O)c2ccc3nn(CC4CCN(C(=O)c5ccc(Cl)cc5)CC4)cc3c2C)C1 observed_measurement="xxx (xxx > 100)"
smiles_string=Cc1cc2nn(CC3CN(C(=O)c4ccc(Cl)cc4)C3)cc2cc1C(=O)NCCN1CCOCC1 observed_measurement="xxx (xxx > 100)"
smiles_string=Cc1c(C(=O)NCC2CC2)ccc2nn(CC3CCN(C(=O)c4ccc(Cl)cc4)CC3)cc12 observed_measurement="xxx (xxx > 100)"

---

test target: EP4 subtype of the human PGE2 receptor (Homo sapiens)
assay protocol: cAMP antagonism test on the human EP4 receptor (HTRF cAMP detection)
Assay type: cell-based
assay setup: selectivity towards hEP4, IC50 measured by cAMP antagonism test
endpoint name: Selectivity hEP2/hEP4

Some entries whose results are on file:
compound=COCCNC(=O)c1ccc2nn(CC3CCN(C(=O)c4ccc(Oc5ncccn5)cc4)CC3)cc2c1C test_target="EP4 subtype of the human PGE2 receptor (Homo sapiens)" endpoint_name="Selectivity hEP2/hEP4" observed_measurement="xxx (xxx > 100)"
compound=COCCNC(=O)c1ccc2nn(CC3CCN(C(=O)c4ccc(Oc5cccc(C(F)(F)F)c5)cc4)CC3)cc2c1C test_target="EP4 subtype of the human PGE2 receptor (Homo sapiens)" endpoint_name="Selectivity hEP2/hEP4" observed_measurement="xxx (xxx > 100)"
compound="Cc1c(C(=O)NCC2CCCCO2)ccc2nn(CC3CN(C(=O)c4ccc(Cl)cc4)C3)cc12 (single isomer, unassigned) [Example 146]" test_target="EP4 subtype of the human PGE2 receptor (Homo sapiens)" endpoint_name="Selectivity hEP2/hEP4" observed_measurement="xxx (xxx > 100)"
compound=Cc1cc2nn(CC3CCN(C(=O)c4ccc(OC(F)(F)F)cc4)CC3)cc2cc1C(=O)NCCN1CCOCC1 test_target="EP4 subtype of the human PGE2 receptor (Homo sapiens)" endpoint_name="Selectivity hEP2/hEP4" observed_measurement="xxx (xxx > 100)"
compound=COCCNC(=O)c1cc2cn(CC3CCN(C(=O)c4ccc(C(F)(F)F)cc4)CC3)nc2cc1C test_target="EP4 subtype of the human PGE2 receptor (Homo sapiens)" endpoint_name="Selectivity hEP2/hEP4" observed_measurement="xxx (xxx > 100)"

In: Fill in: Selectivity hEP2/hEP4 of COc1c(C(=O)NCCN2CCOCC2)ccc2nn(CC3CN(C(=O)c4ccc(Cl)cc4)C3)cc12 is ___
Out: xxx (xxx > 100)

In: Same question, COCCNC(=O)c1ccc2nn(CC3CCN(C(=O)c4ccc(Oc5ccc(F)cc5)cc4)CC3)cc2c1OC(F)F this time
Out: xxx (xxx > 100)

---

test target: EP2 subtype of the human PGE2 receptor (Homo sapiens, UniProt P43116)
Sequence (P43116 whole entry): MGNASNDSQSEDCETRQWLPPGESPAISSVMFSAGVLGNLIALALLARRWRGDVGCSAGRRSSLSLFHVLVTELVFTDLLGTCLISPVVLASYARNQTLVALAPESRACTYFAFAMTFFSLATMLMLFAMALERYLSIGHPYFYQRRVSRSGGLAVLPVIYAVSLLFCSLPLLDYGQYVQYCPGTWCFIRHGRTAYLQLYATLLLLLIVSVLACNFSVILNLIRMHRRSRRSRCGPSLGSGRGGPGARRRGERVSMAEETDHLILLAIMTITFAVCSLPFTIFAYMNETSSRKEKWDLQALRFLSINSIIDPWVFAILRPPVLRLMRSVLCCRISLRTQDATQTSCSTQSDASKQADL
assay protocol: cAMP antagonism test on the human EP2 receptor (HTRF cAMP detection)
Format: cell-based
assay setup: hEP2 receptor, read-out: Antagonism hEP2 IC50
Excerpt: 1. Detection of Antagonism to the Human Prostaglandin E2 (Subtype EP2) Receptor Signal The binding of PGE2 to the EP2 subtype of the human PGE2 receptor induces the activation of membrane-located adenylate cyclases and leads to the formation of cAMP. […] In this test, the cAMP present in the lysate competes with a fluorescence-labelled cAMP (cAMP-d2) for binding to an Eu cryptate-labelled anti-cAMP antibody. […]
endpoint name: IC50 (nM)

Some entries whose results are on file:
compound="Cc1c(C(=O)NCCOC2CC2)ccc2nn(CC3CN(C(=O)c4ccc(OC(F)(F)F)cc4)C3)cc12 [Example 136]" test_target="EP2 subtype of the human PGE2 receptor (Homo sapiens, UniProt P43116)" observed_measurement=6.59
compound="COCCNC(=O)c1ccc2nn(CC3CCN(C(=O)c4ccc(OC5CCOCC5)cc4)CC3)cc2c1C [Example 353]" test_target="EP2 subtype of the human PGE2 receptor (Homo sapiens, UniProt P43116)" observed_measurement=50.2
compound="Cc1c(C(=O)NCC2CCCCO2)ccc2nn(CC3CCN(C(=O)c4ccc(Oc5ccc(C(F)(F)F)cc5)cc4)CC3)cc12 (single isomer, unassigned) [Example 416]" test_target="EP2 subtype of the human PGE2 receptor (Homo sapiens, UniProt P43116)" observed_measurement=10.7
compound="COCCNC(=O)c1ccc2nn(CC3CN(C(=O)c4ccc(SC(F)(F)F)cc4)C3)cc2c1OC [Example 215]" test_target="EP2 subtype of the human PGE2 receptor (Homo sapiens, UniProt P43116)" observed_measurement=39
compound="COCCNC(=O)c1ccc2nn(CC3CCN(C(=O)c4ccc(C(C)(C)C#N)cc4)CC3)cc2c1C [Example 341]" test_target="EP2 subtype of the human PGE2 receptor (Homo sapiens, UniProt P43116)" observed_measurement=55.3

[A] Cc1cc2nn(CC3CN(C(=O)c4ccc(OC(F)(F)F)cc4)C3)cc2cc1C(=O)NCCOC(F)(F)F [Example 196]
[B] CCOc1c(C(=O)NCCOC)ccc2nn(CC3CN(C(=O)c4ccc(Cl)cc4)C3)cc12 [Example 276]
In: Which has the smaller recorded IC50, A or B ? Record your answer as the label of the chosen record.
Out: A

---

test target: EP2 subtype of the human PGE2 receptor (Homo sapiens)
assay protocol: cAMP antagonism test on the human EP2 receptor (HTRF cAMP detection)
Type: cell-based
assay setup: hEP2 receptor, read-out: Antagonism hEP2 IC50
pIC50: −log10 of the molar value.
endpoint name: pIC50

[P] Cc1c(C(=O)NCCS(C)(=O)=O)ccc2nn(CC3CCN(C(=O)c4ccc(Oc5ccc(C(F)(F)F)cc5)cc4)CC3)cc12
[Q] COCCNC(=O)c1ccc2nn(CC3CCN(C(=O)c4ccc(C)cc4)CC3)cc2c1C
[R] Cc1c(C(=O)NCC(F)(F)F)ccc2nn(CC3CCN(C(=O)c4cnc(-c5ccccc5)s4)CC3)cc12
In: Please put the 3 molecules above in a list ordered by falling pIC50. Output spec: a listing of the labels in the requested order.
Out: P, Q, R

---

test target: EP2 subtype of the human PGE2 receptor (Homo sapiens)
assay protocol: cAMP antagonism test on the human EP2 receptor (HTRF cAMP detection)
Type: cell-based
assay setup: hEP2 receptor, read-out: Antagonism hEP2 IC50
endpoint name: IC50 (nM)

smiles_string=Cc1c(C(=O)NCC(F)(F)F)ccc2nn(CC3CCN(C(=O)c4nc(-c5ccccc5)no4)CC3)cc12 unit_text=nM observed_measurement=301
smiles_string=Cc1c(C(=O)NCCOCC(F)(F)F)ccc2nn(CC3CN(C(=O)c4ccc(Cl)cc4)C3)cc12 unit_text=nM observed_measurement=9.33
smiles_string=COCCNC(=O)c1ccc2nn(CC3CCN(C(=O)c4ccc(OC(F)(F)F)cc4)CC3)cc2c1C unit_text=nM observed_measurement=9.67
smiles_string=Cc1c(C(=O)NCCN2CCC(F)(F)C2)ccc2nn(CC3CN(C(=O)c4ccc(Cl)cc4)C3)cc12 unit_text=nM observed_measurement=21.2
smiles_string=Cc1cc2nn(CC3CN(C(=O)c4ccc(Cl)cc4)C3)cc2cc1C(=O)NCCOCC1CC1 unit_text=nM observed_measurement=153

[1] COCCNC(=O)c1ccc2nn(CC3CCN(C(=O)c4ccc(Oc5ccc(F)c(F)c5)cc4)CC3)cc2c1C
[2] Cc1c(C(=O)NCC(F)(F)F)ccc2nn(CC3CN(C(=O)c4ccc(-c5ccc(F)cc5)cc4)C3)cc12
In: Could you point out whether the larger IC50 belongs to 1 or to 2 ? Record your answer as the label of the chosen record.
Out: 2
(2: 98.2 nM, 1: 6.99 nM)

[I] COCCNC(=O)c1ccc2nn(CC3CN(C(=O)c4ccc(-c5ccc(F)cc5)cc4)C3)cc2c1C
[II] COCCNC(=O)c1ccc2nn(CC3CCN(C(=O)c4ccc(-c5ccccc5C)cc4)CC3)cc2c1C
[III] Cc1c(C(=O)NCCN2CCOCC2)ccc2nn(CC3CCN(C(=O)c4ccc(S(F)(F)(F)(F)F)cc4)CC3)cc12
[IV] Cc1c(C(=O)NCCN2CCC(F)(F)C2)ccc2nn(CC3CCN(C(=O)c4ccc(Cl)cc4)CC3)cc12
[V] Cc1c(C(=O)NCCC#N)ccc2nn(CC3CCN(C(=O)c4ccc(Cl)cc4)CC3)cc12
In: Put these in order: smallest IC50 first, largest last. Output spec: a listing of the labels in the requested order.
Out: II, I, IV, V, III

[I] COCCNC(=O)c1ccc2nn(CC3CCN(C(=O)c4ccc5cc(OC)ccc5c4)CC3)cc2c1C
[II] COCCNC(=O)c1ccc2nn(CC3CCN(C(=O)c4ccc(-c5ccc(F)cc5)cc4)CC3)cc2c1OC(F)F
In: Could you point out whether the larger IC50 belongs to I or to II ? Record your answer as the label of the chosen record.
Out: II
(II: 9.89 nM, I: 5.59 nM)
